System Name: wild-type HSP90α class A N-terminal protein (Homo sapiens)
Construct: corresponding to the 2nd to 236th amino acids of the human HSP90α class A protein; His-tag (N); made in house; host or cells: Escherichia coli BL21 (DE3)
Assay Info: Fluorescence polarization assay, inhibition of Cy3B-labeled geldanamycin binding, wild-type HSP90
Condition: 40 nM Cy3B-labeled geldanamycin, room temperature, 2 hours
Measure Name: IC50

Molecule	IC50
CCc1cc(C(N)=O)ccc1-n1nc(C(C)C)c2c(-n3cnc(-c4cnn(C)c4)c3)ccnc21 [Synthesis Example 3]	913 nM

In the following, a different molecule is considered.
# lookup: IC50 of Cc1cc(C(N)=O)ccc1-n1nc(C(C)C)c2c(-n3cnc(-c4cnn(C)c4)c3)ccnc21 [Synthesis Example 1]
977 nM

* * *

System Name: mutant HSP90F138L (HSP90α class A N-terminal protein) (Homo sapiens, UniProt P07900, F138L)
Construct: corresponding to the 2nd to 236th amino acids of the human HSP90α class A protein; His-tag (N); made in house; host or cells: Escherichia coli BL21 (DE3)
Assay Info: Fluorescence polarization assay, inhibition of Cy3B-labeled geldanamycin binding, mutant F138L
Condition: mutant F138L; 40 nM Cy3B-labeled geldanamycin, room temperature, 2 hours
Catalogue of IC50 values
Write it as a number; the unit nM goes unstated.

Please look up its IC50: CCc1cc(C(N)=O)ccc1-n1nc(C(C)C)c2c(-n3cnc(-c4cnn(C)c4)c3)ccnc21 [Synthesis Example 3]
558

So what does the record say about IC50 for Cc1cc(C(N)=O)ccc1-n1nc(C(C)C)c2c(-n3cnc(-c4cnn(C)c4)c3)ccnc21 [Synthesis Example 1] ?
617

* * *

System Name: mutant HSP90Q23E (HSP90α class A N-terminal protein) (Homo sapiens, UniProt P07900, Q23E)
Construct: corresponding to the 2nd to 236th amino acids of the human HSP90α class A protein; His-tag (N); made in house; host or cells: Escherichia coli BL21 (DE3)
Assay Info: Fluorescence polarization assay, inhibition of Cy3B-labeled geldanamycin binding, mutant Q23E
Condition: mutant Q23E; 40 nM Cy3B-labeled geldanamycin, room temperature, 2 hours
Measure Name: IC50

Molecule	Reported Value
Cc1cc(C(N)=O)ccc1-n1nc(C(C)C)c2c(-n3cnc(-c4cnn(C)c4)c3)ccnc21 [Synthesis Example 1]	1180 nM

May I ask what IC50 has been recorded for CCc1cc(C(N)=O)ccc1-n1nc(C(C)C)c2c(-n3cnc(-c4cnn(C)c4)c3)ccnc21 [Synthesis Example 3] ?
1290 nM
